# test name: Stability of DNPs by DLS after storage at 5° C.
# Type: physicochemical
# test settings: after 19 days at 5° C.; IAJD 4.0 mg/mL + Luc-mRNA 0.1 mg/mL, acetate buffer
quantity: PDI

A: CCCCCCCCCCCCCCCOc1cc(COC(=O)CCCN2CCN(CCO)CC2)cc(OCCCCCCCCCCCCCC)c1
B: CCCCCCCCCCCCCCOc1cc(COC(=O)c2cc(OCCOCCOCCCC(=O)CCCN3CCCCC3)c(OCCOCCOCCOCc3ccccc3)c(OCCOCCOCCOC(=O)CCCN3CCCCC3)c2)cc(OCCCCCCCCCCC)c1
Input line: Input pair: A , B . Output: entry with lower PDI. Record your answer as the label of the chosen record.
Output line: B
